- system: recombinant human SGK-1 enzyme (Homo sapiens)
- Sequence (O00141 whole entry, looked up): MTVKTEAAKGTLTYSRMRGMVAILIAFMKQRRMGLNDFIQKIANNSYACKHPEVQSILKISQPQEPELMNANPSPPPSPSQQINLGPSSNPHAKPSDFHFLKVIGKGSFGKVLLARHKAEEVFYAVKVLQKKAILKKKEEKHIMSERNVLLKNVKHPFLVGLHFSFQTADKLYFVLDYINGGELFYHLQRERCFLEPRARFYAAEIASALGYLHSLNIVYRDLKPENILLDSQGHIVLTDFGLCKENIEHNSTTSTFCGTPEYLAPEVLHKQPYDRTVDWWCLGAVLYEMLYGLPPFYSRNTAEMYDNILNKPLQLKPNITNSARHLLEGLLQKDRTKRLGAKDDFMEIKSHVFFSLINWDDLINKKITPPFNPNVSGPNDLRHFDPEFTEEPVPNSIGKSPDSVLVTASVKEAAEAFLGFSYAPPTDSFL
- experimental_protocol: SGK-1 enzymatic activity assay (substrate phosphorylation, fluorescein-labeled peptide, lab-chip)
- condition_label: ATP 10 μM, peptide substrate 1 μM, 60 min at 37° C., read-out: IC50 for inhibition of SGK-1 enzymatic activity
- From the text: The synthesized fluorescent labeled peptide substrate contained (5(6)-Carboxyfluorescein)-RPRAATF-NH2. The phosphorylated substrate peptide and non-phosphorylated substrate peptide were separated with caliper life science's lab-chip technology based on a micro fluidics method. […] Substrate turnover can thus be determined as the ratio of the product peak area and the sum of substrate peak area and product peak area. […]
readout_kind: IC50 (nM)

(I) Nc1n[nH]c2nc(-c3ccc(NS(=O)(=O)c4cc(F)cc(F)c4Cl)cc3)cnc12
(II) N#Cc1ccc(F)c(S(=O)(=O)Nc2ccc(-c3cnc4c(N)n[nH]c4n3)cc2)c1
(III) O=S(=O)(Nc1ccc(-c2cnc3c(NS(=O)(=O)c4cc(Cl)c(F)cc4F)n[nH]c3n2)cc1)c1cc(Cl)c(F)cc1F
(IV) Cc1nn(C)c(Cl)c1S(=O)(=O)Nc1ccc(-c2cnc3c(NS(=O)(=O)c4c(C)nn(C)c4Cl)n[nH]c3n2)cc1
(V) Nc1n[nH]c2nc(-c3ccc(NS(=O)(=O)c4ccc(F)cc4Cl)cc3)cnc12
In: Rank the listed molecules by IC50, largest first. Record the ranking as a list of labels in the requested order.
Out: IV, III, II, I, V

The reported numbers originate from patent US9174993B2.
